- measurement.target: T1, recombinant human TIGIT (human, UniProt Q495A1 22-141, limits assumed)
- T1 construct: recombinant human TIGIT used in Carterra SPR; also called hTIGIT
- T1 sequence (looked up): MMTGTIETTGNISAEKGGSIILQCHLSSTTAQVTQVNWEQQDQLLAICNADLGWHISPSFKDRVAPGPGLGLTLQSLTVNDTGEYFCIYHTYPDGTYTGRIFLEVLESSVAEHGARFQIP
- measurement.notes: SPR Carterra, average
Measured koff, listed per entry.

- binder: "TIGIT-SC213 (Fc fusion, VHH-Fc fusion in assay) VHH: EVQLVESGGGLVQPGGSLRLSCAASGTFQRINAMGWFRQAPGKEREFVAAIWRSGTLKAYADSVKGRFTISADNSKNTAYLQMNSLKPEDTAVYYCARWVGASGDYWIDYWGQGTLVTVSS"
  unit.string: "s⁻¹"
  value.operator: "="
  koff: 0.00285
- binder: "TIGIT-SC49 (Fc fusion, VHH-Fc fusion in assay) VHH: EVQLVESGGGLVQPGGSLRLSCAASGRTFIGYHMGWFRQAPGKEREFVAAISWTGESTLYADSVKGRFTISADNSKNTAYLQMNSLKPEDTAVYYCARDDYGDYRRYFQHWGQGTLVTVSS"
  unit.string: "s⁻¹"
  value.operator: "="
  koff: 0.00102
- binder: "TIGIT-SC48 (Fc fusion, VHH-Fc fusion in assay) VHH: EVQLVESGGGLVQPGGSLRLSCAASGRTSDIYGMGWFRQAPGKEREAVASIWRSGGNTYYADSVKGRFTISADNSKNTAYLQMNSLKPEDTAVYYCASSTLDVWGQGTLVTVSS"
  unit.string: "s⁻¹"
  value.operator: "="
  koff: 0.00551
- binder: "TIGIT-SC14 (Fc fusion, VHH-Fc fusion in assay) VHH: EVQLVESGGGLVQPGGSLRLSCAASGSISSIHAMGWFRQAPGKEREFVATISRSGVGTFYADSVKGRFTISADNSKNTAYLQMNSLKPEDTAVYYCASSYSSSSGLGDIWGQGTLVTVSS"
  unit.string: "s⁻¹"
  value.operator: "≤"
  koff: "1e-05"
- binder: "TIGIT-SC204 (Fc fusion, VHH-Fc fusion in assay) VHH: EVQLVESGGGLVQPGGSLRLSCAASGFLFNSYWMVWFRQAPGKEREFVAAIWRSGTLKAYADSVKGRFTISADNSKNTAYLQMNSLKPEDTAVYYCAADVNYGSTWRNWGQGTLVTVSS"
  unit.string: "s⁻¹"
  value.operator: "="
  koff: 0.00339
- binder: "TIGIT-SC101 (Fc fusion, VHH-Fc fusion in assay) VHH: EVQLVESGGGLVQPGGSLRLSCAASGRTFSSYAMGWFRQAPGKEREFVAAIDWSDGSTYYADSVKGRFTISADNSKNTAYLQMNSLKPEDTAVYYCARWYSSSGDYYYMDVWGQGTLVTVSS"
  unit.string: "s⁻¹"
  value.operator: "="
  koff: 0.00421
- binder: "TIGIT-SC178 (Fc fusion, VHH-Fc fusion in assay) VHH: EVQLVESGGGLVQPGGSLRLSCAASGFTLSPSWMGWFRQAPGKEREWVASVLRGGYTWYADSVKGRFTISADNSKNTAYLQMNSLKPEDTAVYYCASEVASGETDYWGQGTLVTVSS"
  unit.string: "s⁻¹"
  value.operator: "="
  koff: 0.0776
- binder: "TIGIT-SC66 (Fc fusion, VHH-Fc fusion in assay) VHH: EVQLVESGGGLVQPGGSLRLSCAASGTTFSSAAMGWFRQAPGKEREWVASVLRGGYTWYADSVKGRFTISADNSKNTAYLQMNSLKPEDTAVYYCVTDPRQWLGHDYWGQGTLVTVSS"
  unit.string: "s⁻¹"
  value.operator: "="
  koff: 0.00116

Data provenance: patent US20260184782A1
